target: T1, human mesothelin (recombinant, soluble, purified; 40 kDa C-terminal polypeptide of the mesothelin precursor) (human, UniProt Q13421 296-598, limits assumed); experiment: SPR (Biacore 3000), Fab on covalently immobilized human mesothelin
T1 construct: also called soluble mesothelin
T1 sequence (Q13421 other isoform, or with tags, fused parts or gaps limits assumed): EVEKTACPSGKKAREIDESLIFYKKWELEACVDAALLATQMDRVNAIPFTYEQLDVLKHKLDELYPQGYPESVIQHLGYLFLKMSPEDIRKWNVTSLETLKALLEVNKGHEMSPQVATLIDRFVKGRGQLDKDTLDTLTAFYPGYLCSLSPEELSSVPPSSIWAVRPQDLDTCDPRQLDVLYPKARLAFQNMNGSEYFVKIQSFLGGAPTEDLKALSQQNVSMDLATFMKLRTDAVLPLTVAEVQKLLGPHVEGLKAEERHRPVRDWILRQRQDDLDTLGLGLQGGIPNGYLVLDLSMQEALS
Rule: koff of 0.005 s⁻¹ or more gives t; anything lower gives f.

Please review the following examples before continuing.
INSERT INTO assay_data (binder, group_label) VALUES
  ('MF-226 Fab (Fab, V domains shown, Purified Fab) VH: QVELVQSGAEVKKPGASVKVSCKASGYTFTGNYINWVRQAPGQGLEWMGIINPHGGDTKYAQKFQGRVTMTRDTSISTAYMELSSLRSEDTAVYYCARWHHGTWIFDYWGQGTLVTVSS VL: DIVLTQPPSVSGAPGQRVTISCSGSSSNIGSNYVSWYQQLPGTAPKLLIYNDNQRPSGVPDRFSGSKSGTSASLAITGLQSEDEADYYCSTYDRRTFSVFGGGTKLTVLG', 't'),
  ('MOR06638 Fab (Fab, V domains shown, Purified Fab) VH: QVQLVQSGAEVKKPGASVKVSCKASGYTFTGNYINWVRQAPGQGLEWMGIINPHGGDTKYAQKFQGRVTMTRDTSISTAYMELSSLRSEDTAVYYCARWHHGTWIFDYWGQGTLVTVSS VL: DIVLTQPPSVSGAPGQRVTISCSGSSSNIGSNYVSWYQQLPGTAPKLLIYNDNQRPSGVPDRFSGSKSGTSASLAITGLQSEDEADYYCSSWDRADGSYVFGGGTKLTVLG', 't'),
  ('MOR06657 Fab (Fab, V domains shown, Purified Fab) VH: QVQLVQSGAEVKKPGSSVKVSCKASGGTFSSYYFSWVRQAPGQGLEWMGGIIPKFGSANYAQKFQGRVTITADESTSTAYMELSSLRSEDTAVYYCARRTSMDYWGQGTLVTVSS VL: DIALTQPASVSGSPGQSITISCTGTSSDVGGYNYVSWYQQHPGKAPKLMIYSVSKRPSGVSNRFSGSKSGNTASLTISGLQAEDEADYYCATWDHSQMGKVFGGGTKLTVLG', 't');

*Q* For this binder, is measured koff 0.005 s⁻¹ or higher? MF-A Fab (Fab, V domains shown, Purified Fab) VH: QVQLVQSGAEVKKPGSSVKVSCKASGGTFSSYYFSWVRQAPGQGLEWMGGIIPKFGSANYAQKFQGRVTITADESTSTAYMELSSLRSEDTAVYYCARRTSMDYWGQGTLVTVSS VL: DIALTQPASVSGSPGQSITISCTGTSSDVGGYNYVSWYQQHPGKAPKLMIYSVSKRPSGVSNRFSGSKSGNTASLTISGLQAEDEADYYCGAWAHMSLGKVFGGGTKLTVLG
*A* t

*Q* For this binder, is measured koff 0.005 s⁻¹ or higher? MOR06626 Fab (Fab, V domains shown, Purified Fab) VH: QVQLVQSGAEVKKPGASVKVSCKASGYTFTGNYINWVRQAPGQGLEWMGIINPTKGWTLYAQKFQGRVTMTRDTSISTAYMELSSLRSEDTAVYYCARWHHGTWIFDYWGQGTLVTVSS VL: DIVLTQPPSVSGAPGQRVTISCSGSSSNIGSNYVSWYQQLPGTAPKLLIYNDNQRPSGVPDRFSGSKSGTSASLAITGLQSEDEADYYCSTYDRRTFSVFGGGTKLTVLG
*A* f
